meta.source: the supplement of paper PMC10567573

The entries below are paired with their reported protein stability index.
B1: TMEM175 (parent)
chain: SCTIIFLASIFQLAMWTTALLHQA

# Variants of: B1
# ASSAY_METHOD_TEXT: protein stability index of a GFP-peptide fusion (GPS, HEK-293T) (PSI 1-6); higher = more stable;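 note: lentivirally expressed fusions sorted by FACS into six bins by GFP to DsRed ratio, PSI derived from sequencing read proportions per bin multiplied by bin number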
# CONDITION_INFO: c terminus: a fixed tail appended

CHANGE: A19R
protein stability index: 2.19
//
CHANGE: I5L
protein stability index: 1.46
//
CHANGE: T3W
protein stability index: 3.07
//
CHANGE: S1L
protein stability index: 2.96
//
CHANGE: T3K
protein stability index: 2.84
//
CHANGE: L7P
protein stability index: 2.79
//
CHANGE: Q23I
protein stability index: 2.95
//
CHANGE: C2I
protein stability index: 1.73
//
CHANGE: I4K
protein stability index: 3.01
//
CHANGE: C2D
protein stability index: 3.24
//
CHANGE: A24V
protein stability index: 1.5
//
CHANGE: Q23N
protein stability index: 4.37
//
CHANGE: T3H
protein stability index: 2.04
//
CHANGE: L7E
protein stability index: 2.34
//
CHANGE: A19L
protein stability index: 2.11
//
CHANGE: L21I
protein stability index: 2.71
//
CHANGE: T18R
protein stability index: 2.09
//
CHANGE: I10T
protein stability index: 3.72
//
CHANGE: H22N
protein stability index: 2.87
//
CHANGE: L20F
protein stability index: 2.74
//
CHANGE: A8K
protein stability index: 3.08
//
CHANGE: I10S
protein stability index: 2.97
//
CHANGE: I5T
protein stability index: 2.35
//
CHANGE: F11D
protein stability index: 2.62
//
CHANGE: A24C
protein stability index: 3.39
//
CHANGE: T3I
protein stability index: 3.33
//
CHANGE: I5R
protein stability index: 1.6
//
CHANGE: T18Y
protein stability index: 2.68
//
CHANGE: S1I
protein stability index: 3.24
//
CHANGE: T17I
protein stability index: 3.54
//
CHANGE: M15I
protein stability index: 2.79
//
CHANGE: S1M
protein stability index: 2.14
//
CHANGE: L7K
protein stability index: 2.48
//
CHANGE: T17L
protein stability index: 3.31
//
CHANGE: A14Q
protein stability index: 4.22
//
CHANGE: A14D
protein stability index: 4
//
CHANGE: F11S
protein stability index: 2.19
//
CHANGE: S9W
protein stability index: 4.47
//
CHANGE: A19K
protein stability index: 2.76
//
CHANGE: A19M
protein stability index: 3.22
//
CHANGE: A24D
protein stability index: 4.05
//
CHANGE: C2H
protein stability index: 3.33
//
CHANGE: A14Y
protein stability index: 4
//
CHANGE: S1K
protein stability index: 2.29
//
CHANGE: A8E
protein stability index: 2.8
//
CHANGE: T3D
protein stability index: 2.86
//
CHANGE: L20G
protein stability index: 1.94
//
CHANGE: L21R
protein stability index: 3.98
//
CHANGE: L7D
protein stability index: 4.13
//
CHANGE: A14E
protein stability index: 1.9
//
CHANGE: T3L
protein stability index: 2.92
//
CHANGE: L13H
protein stability index: 3.13
//
CHANGE: Q12E
protein stability index: 3.39
//
CHANGE: A8F
protein stability index: 3.99
//
CHANGE: A8L
protein stability index: 3.28
//
CHANGE: S9L
protein stability index: 3.52
//
CHANGE: T18P
protein stability index: 3.36
//
CHANGE: C2Q
protein stability index: 2.54
//
CHANGE: A24R
protein stability index: 2.43
//
CHANGE: L13R
protein stability index: 1.63
//
CHANGE: A24F
protein stability index: 2.62
//
CHANGE: I4D
protein stability index: 3.54
//
CHANGE: A19I
protein stability index: 2.14
//
CHANGE: I5K
protein stability index: 2.92
//
CHANGE: A24L
protein stability index: 3.17
//
CHANGE: Q23E
protein stability index: 2.09
//
CHANGE: F11M
protein stability index: 1.87
//
CHANGE: L13I
protein stability index: 2.5
//
CHANGE: I4W
protein stability index: 2.14
//
CHANGE: F11A
protein stability index: 3.92
//
CHANGE: T3E
protein stability index: 1.72
//
CHANGE: F6T
protein stability index: 4.09
//
CHANGE: I10V
protein stability index: 3.47
//
CHANGE: T17Y
protein stability index: 2.83
//
CHANGE: L21V
protein stability index: 3.72
//
CHANGE: A19Y
protein stability index: 2.1
//
CHANGE: I5N
protein stability index: 2.28
//
CHANGE: Q23W
protein stability index: 3.32
//
CHANGE: F11R
protein stability index: 5.97
//
CHANGE: A14G
protein stability index: 3.94
//
CHANGE: F11Q
protein stability index: 3.1
//
CHANGE: I5F
protein stability index: 2.81
//
CHANGE: L7V
protein stability index: 3.55
//
CHANGE: T17H
protein stability index: 4.62
//
CHANGE: H22Y
protein stability index: 2.5
//
CHANGE: I10H
protein stability index: 3.64
//
CHANGE: Q12L
protein stability index: 3.15
//
CHANGE: I4Y
protein stability index: 2.23
//
CHANGE: T18L
protein stability index: 2.73
//
CHANGE: A8G
protein stability index: 3.09
//
CHANGE: W16S
protein stability index: 2.58
